- measurement-protocol: AUC (0 to infinity) in Sprague-Dawley rat at 10 mg/kg, po measured for 24 hrs by LC-MS/MS analysis
- Format: ADME, organism-based
- condition-summary: in vivo
observation-type: AUC(0-inf) (ng·h/mL)

structure-smiles: NCC(=O)N1C[C@@H](CCB(O)O)C[C@](N)(C(=O)O)C1
measured: 2680

---

- target-or-system: Arginase-1 (Homo sapiens)
- Sequence (P05089 whole entry): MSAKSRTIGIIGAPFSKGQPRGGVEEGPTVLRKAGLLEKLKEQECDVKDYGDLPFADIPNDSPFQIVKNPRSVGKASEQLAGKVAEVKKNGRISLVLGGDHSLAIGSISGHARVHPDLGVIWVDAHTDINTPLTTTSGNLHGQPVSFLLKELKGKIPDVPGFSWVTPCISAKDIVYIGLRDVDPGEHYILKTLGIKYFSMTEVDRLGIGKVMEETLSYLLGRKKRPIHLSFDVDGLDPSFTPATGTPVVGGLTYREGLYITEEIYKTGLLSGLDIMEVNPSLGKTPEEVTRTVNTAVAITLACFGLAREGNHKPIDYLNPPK
- measurement-protocol: Inhibition of extracellular arginase (unknown origin)

structure-smiles: CN(C)C[C@@H]1CC[C@@H](CCB(O)O)C[C@]1(N)C(=O)O
IC50, µM: 0.02

---

- target-or-system: UniProtKB P05089
- measurement-protocol: Inhibition of human recombinant ARG1 expressed in Escherichia coli using L-arginine hydrochloride as substrate assessed as inhibition of urea production incubated for 20 mins by colorimetric analysis
// NB: equality with 400 nM counts as False; only IC50 strictly below is True

structure-smiles: N[C@@H](CS)C(=O)N1C[C@@H](CCB(O)O)C[C@](N)(C(=O)O)C1
class-assignment: False

structure-smiles: N[C@@H](Cc1ccc(O)cc1)C(=O)N1C[C@@H](CCB(O)O)C[C@](N)(C(=O)O)C1
class-assignment: True

structure-smiles: CC(C)[C@H](N)C(=O)N1C[C@@H](CCB(O)O)C[C@](N)(C(=O)O)C1
class-assignment: True

structure-smiles: CC[C@H](C)[C@H](N)C(=O)N1C[C@@H](CCB(O)O)C[C@](N)(C(=O)O)C1
class-assignment: False

structure-smiles: N[C@@]1(C(=O)O)CNC[C@@H](CCB(O)O)C1
class-assignment: False

structure-smiles: NCC(=O)N1C[C@@H](CCB(O)O)C[C@](N)(C(=O)O)C1
class-assignment: True

structure-smiles: NCCC[C@H](N)C(=O)N1C[C@@H](CCB(O)O)C[C@](N)(C(=O)O)C1
class-assignment: True

structure-smiles: NC(=O)CC[C@H](N)C(=O)N1C[C@@H](CCB(O)O)C[C@](N)(C(=O)O)C1
class-assignment: False

structure-smiles: N[C@@]1(C(=O)O)CCC[C@@H](CCB(O)O)C1
class-assignment: False

structure-smiles: C[C@H](N)C(=O)N1C[C@@H](CCB(O)O)C[C@](N)(C(=O)O)[C@@H]1C
class-assignment: True

structure-smiles: Cn1cc(C[C@@H](N)C(=O)N2C[C@@H](CCB(O)O)C[C@](N)(C(=O)O)C2)c2ccccc21
class-assignment: False

structure-smiles: CCC[C@H](N)C(=O)N1C[C@@H](CCB(O)O)C[C@](N)(C(=O)O)C1
class-assignment: True

structure-smiles: N[C@@H](CC(=O)O)C(=O)N1C[C@@H](CCB(O)O)C[C@](N)(C(=O)O)C1
class-assignment: False

structure-smiles: CN(C)C[C@@H]1CC[C@@H](CCB(O)O)C[C@]1(N)C(=O)O
class-assignment: True

structure-smiles: C[C@@H](O)[C@H](N)C(=O)N1C[C@@H](CCB(O)O)C[C@](N)(C(=O)O)C1
class-assignment: True

structure-smiles: C[C@H](N)C(=O)N1C[C@H](CCB(O)O)C[C@](N)(C(=O)O)C1
class-assignment: False

---

- measurement-protocol: Oral bioavailability in Balb/c mouse at 100 mg/kg measured for 24 hrs by LC-MS/MS analysis
- Format: ADME, organism-based
- condition-summary: in vivo
observation-type: bioavailability

structure-smiles: C[C@H](N)C(=O)N1C[C@@H](CCB(O)O)C[C@](N)(C(=O)O)C1
observation-type: bioavailability
measured: 58%
